Test system: rabbit skeletal myofibrils (approximately 90% fast fibers)
PROTOCOL: Activation of fast skeletal myofibrils (PUMA coupled-enzyme ATPase assay, AC1.4)
Format: biochemical
ASSAY_CONDITIONS: Table 3; concentration at which the compound increased enzymatic activity by 40%; calcium at pCa25
MEASUREMENT_KIND: Mean AC1.4

Reference set, count: 4
Fc1cccnc1C1(CNc2nnc(-c3cscn3)s2)CCC1	B (B=1-10 uM)
Fc1cccnc1C1(CNc2nnc(Cc3ccccc3)s2)CCC1	D (D=>20 uM)
Fc1cccnc1[C@]1(CNc2nnc(-c3cc(Br)ccc3Cl)s2)C[C@H](F)C1	A (A=<1 uM)
CSc1ncc(C)c(-c2nnc(NC[C@]3(c4ncccc4F)C[C@H](F)C3)s2)n1	B (B=1-10 uM)

q: Reported Mean AC1.4 for Cc1cc(Br)sc1-c1nnc(NC[C@]2(c3ncccc3F)C[C@H](F)C2)s1 : what is it?
a: B (B=1-10 uM)

q: Reported Mean AC1.4 for CC(C)(Nc1nnc(-c2cc(Br)ccc2F)s1)c1ncccc1F : what is it?
a: B (B=1-10 uM)

q: Reported Mean AC1.4 for Cc1ccsc1-c1nnc(NC[C@]2(c3ncccc3F)C[C@H](F)C2)s1 : what is it?
a: B (B=1-10 uM)

q: Reported Mean AC1.4 for Cc1ccc(-c2nnc(NCC3(c4ncccc4F)CCC3)s2)cc1 : what is it?
a: B (B=1-10 uM)

q: Reported Mean AC1.4 for Cc1ccccc1-c1nnc(NCC2(c3ncccc3F)CCC2)s1 : what is it?
a: B (B=1-10 uM)

q: Reported Mean AC1.4 for N#Cc1cccc(-c2nnc(NCC3(c4ncccc4F)CCC3)s2)c1 : what is it?
a: B (B=1-10 uM)

q: Reported Mean AC1.4 for NC(=O)c1ccc(-c2nnc(NC[C@]3(c4ncccc4F)C[C@H](F)C3)s2)s1 : what is it?
a: B (B=1-10 uM)

q: Reported Mean AC1.4 for N#Cc1ccccc1-c1nnc(NCC2(c3ncccc3F)CCC2)s1 : what is it?
a: B (B=1-10 uM)

q: Reported Mean AC1.4 for Cn1nccc1-c1nnc(NC[C@]2(c3ncccc3F)C[C@H](F)C2)s1 : what is it?
a: D (D=>20 uM)

q: Reported Mean AC1.4 for Fc1cccnc1C1(CNc2nnc(-c3ccccc3Cl)s2)CCC1 : what is it?
a: A (A=<1 uM)

q: Reported Mean AC1.4 for Cc1cc(C(N)=O)sc1-c1nnc(NC[C@]2(c3ncccc3F)C[C@H](F)C2)s1 : what is it?
a: B (B=1-10 uM)

q: Reported Mean AC1.4 for Cn1cc(-c2nnc(NCC3(c4ncccc4F)CCC3)s2)cn1 : what is it?
a: D (D=>20 uM)

q: Reported Mean AC1.4 for CC(C)(O)c1ccc(F)c(-c2nnc(NC[C@]3(c4ncccc4F)C[C@H](F)C3)s2)c1 : what is it?
a: B (B=1-10 uM)

q: Reported Mean AC1.4 for N#Cc1ccc(-c2nnc(NC[C@]3(c4ncccc4F)C[C@H](F)C3)s2)s1 : what is it?
a: D (D=>20 uM)

q: Reported Mean AC1.4 for N#Cc1ccc(Cl)c(-c2nnc(NC[C@]3(c4ncccc4F)C[C@H](F)C3)s2)c1 : what is it?
a: A (A=<1 uM)

q: Reported Mean AC1.4 for Cn1cc(-c2nnc(NC[C@]3(c4ncccc4F)C[C@H](F)C3)s2)cn1 : what is it?
a: D (D=>20 uM)

----------
Test system: rabbit skeletal myofibrils (approximately 90% fast fibers)
PROTOCOL: Activation of fast skeletal myofibrils (PUMA coupled-enzyme ATPase assay, AC1.4)
Type: biochemical
ASSAY_CONDITIONS: Table 2; concentration at which the compound increased enzymatic activity by 40%; calcium at pCa25
MEASUREMENT_KIND: Mean AC1.4

Reference set, count: 5
C[C@H](CNc1nc(-c2cccc(C(N)=O)c2)ns1)c1ccc(F)cc1	A (A=<1 uM)
C[C@H](CNc1nc(-c2ccc(O)nc2)ns1)c1ccc(F)cc1	B (B=1-10 uM)
CC(C)(CNc1nc(CNCCO)ns1)c1ccc(F)cc1	D (D=>20 uM)
COc1cccc(Cc2nsc(NCCc3cccc(Cl)c3)n2)c1	C (C=10-20 uM)
Cc1ccc(Cc2nsc(NCCc3ccc(Cl)cc3Cl)n2)cc1	D (D=>20 uM)

q: Reported Mean AC1.4 for CC(C)(CNc1nc(-c2cccc(O)c2)ns1)c1ccc(F)cc1 : what is it?
a: A (A=<1 uM)

q: Reported Mean AC1.4 for NC(=O)c1cccc(-c2nsc(NCCc3ccc(F)cc3)n2)c1 : what is it?
a: B (B=1-10 uM)

q: Reported Mean AC1.4 for COc1cccc(Cc2nsc(NCCc3ccc(Cl)cc3Cl)n2)c1 : what is it?
a: C (C=10-20 uM)

q: Reported Mean AC1.4 for COc1cccc(C(C)c2nsc(N(C)CC(C)(C)c3ccc(F)cc3)n2)c1 (centres unmarked) : what is it?
a: D (D=>20 uM)

q: Reported Mean AC1.4 for CC(Cc1ccc(Cl)cc1)Nc1nc(Cc2ccc(F)cc2)ns1 (centres unmarked) : what is it?
a: D (D=>20 uM)

----------
Tested on: rabbit skeletal myofibrils (approximately 90% fast fibers)
PROTOCOL: Activation of fast skeletal myofibrils (PUMA coupled-enzyme ATPase assay, AC1.4)
Format: biochemical
ASSAY_CONDITIONS: Table 3; concentration at which the compound increased enzymatic activity by 40%; calcium at pCa25
MEASUREMENT_KIND: Mean AC1.4

Reference set, count: 4
N#Cc1ccc(F)c(-c2nnc(NC[C@]3(c4ncccc4F)C[C@H](F)C3)s2)c1	B (B=1-10 uM)
Fc1cccnc1C1(CNc2nnc(-c3nccs3)s2)CCC1	B (B=1-10 uM)
Cn1nccc1-c1nnc(NCC2(c3ncccc3F)CCC2)s1	D (D=>20 uM)
Cc1ccc(C#N)cc1-c1nnc(NC[C@]2(c3ncccc3F)C[C@H](F)C2)s1	B (B=1-10 uM)

q: Form: Entry = Cc1ccc(Br)cc1-c1nnc(NC[C@]2(c3ncccc3F)C[C@H](F)C2)s1 | System = rabbit skeletal myofibrils (approximately 90% fast fibers) | Mean AC1.4 = ____
a: A (A=<1 uM)

q: Form: Entry = NC(=O)c1ccccc1-c1nnc(NCC2(c3ncccc3F)CCC2)s1 | System = rabbit skeletal myofibrils (approximately 90% fast fibers) | Mean AC1.4 = ____
a: D (D=>20 uM)

----------
Test system: rabbit skeletal myofibrils (approximately 90% fast fibers)
PROTOCOL: Activation of fast skeletal myofibrils (PUMA coupled-enzyme ATPase assay, AC1.4)
Assay type: biochemical
ASSAY_CONDITIONS: Table 2; concentration at which the compound increased enzymatic activity by 40%; calcium at pCa25
MEASUREMENT_KIND: Mean AC1.4

Fc1ccc(Cc2nsc(Nc3ccc(Cl)c(Cl)c3)n2)cc1	D (D=>20 uM)
CC(C)(CNc1nc(CCN2CC[C@@H](O)C2)ns1)c1ccc(F)cc1	C (C=10-20 uM)
COc1cccc(Cc2nsc(Nc3ccc(Cl)c(Cl)c3)n2)c1	D (D=>20 uM)
CC(C)(CNc1nc(CCN2CCCCC2)ns1)c1ccc(F)cc1	D (D=>20 uM)
COCCNc1nsc(NCC(C)(C)c2ccc(F)cc2)n1	D (D=>20 uM)

q: Reported Mean AC1.4 for COc1cccc(Cc2nsc(NCCc3cccc(F)c3)n2)c1 : what is it?
a: C (C=10-20 uM)

q: Reported Mean AC1.4 for CC(C)(CNc1nc(CCC(=O)O)ns1)c1ccc(F)cc1 : what is it?
a: D (D=>20 uM)

q: Reported Mean AC1.4 for Oc1cccc(Cc2nsc(NCCc3cccc(Cl)c3)n2)c1 : what is it?
a: B (B=1-10 uM)

q: Reported Mean AC1.4 for CN(C)CCN(C)c1nsc(NCC(C)(C)c2ccc(F)cc2)n1 : what is it?
a: D (D=>20 uM)

q: Reported Mean AC1.4 for COc1cccc(Cc2nsc(NCCc3ccc(Cl)c(Cl)c3)n2)c1 : what is it?
a: B (B=1-10 uM)

q: Reported Mean AC1.4 for Fc1ccc(Cc2nsc(NCCc3ccncc3)n2)cc1 : what is it?
a: D (D=>20 uM)

q: Reported Mean AC1.4 for Cc1ccc(Cc2nsc(NCCc3cccc(Cl)c3)n2)cc1 : what is it?
a: B (B=1-10 uM)

q: Reported Mean AC1.4 for CC(C)(CNc1nc(CCCNS(C)(=O)=O)ns1)c1ccc(F)cc1 : what is it?
a: B (B=1-10 uM)

q: Reported Mean AC1.4 for CC(C)(CNc1nc(-c2cccc(C(N)=O)c2)ns1)c1ccc(F)cn1 : what is it?
a: B (B=1-10 uM)

q: Reported Mean AC1.4 for COc1cccc(Cc2nsc(NCC(C)(C)c3ccc(Cl)cc3)n2)c1 : what is it?
a: A (A=<1 uM)

q: Reported Mean AC1.4 for Fc1ccc(Cc2nsc(NCCc3ccccn3)n2)cc1 : what is it?
a: D (D=>20 uM)

q: Reported Mean AC1.4 for CC(C)(CNc1nc(-c2ccc(F)cc2)ns1)c1ccc(F)cc1 : what is it?
a: B (B=1-10 uM)

q: Reported Mean AC1.4 for CNC(=O)c1ccc(-c2nsc(NCC(C)(C)c3ccc(F)cc3)n2)cn1 : what is it?
a: B (B=1-10 uM)

q: Reported Mean AC1.4 for COc1ccc(-c2nsc(NCC(C)(C)c3ccc(F)cc3)n2)cn1 : what is it?
a: B (B=1-10 uM)
